- TARGET_SYSTEM: hVR1 receptors (Homo sapiens)
- EXPERIMENTAL_PROTOCOL: Broadly stimulated recombinant human VR1 functional assay (Ca2+ influx, FLIPR)
- Assay type: cell-based
- Design: expressed in transfected cells; host or cells: HEK293
- STUDY_CONDITIONS: recombinant human VR1, PMA at low pH, Ca2+ influx; read-out: IC50, PKC phosphorylation at low pH
MEASUREMENT_LABEL: pIC50
Value format note: pIC50 is -log10 of concentration (mol/L); just state the number.

IN: // query pIC50 value for entry COc1ccc2c(c1)CCC(NC(=O)Nc1cccc3cnccc13)C2Cc1ccccc1 (stereo not shown)
OUT: 7.15

---

- TARGET_SYSTEM: Rat VR1 (Rattus norvegicus, UniProt O35433)
- Sequence (O35433 whole entry): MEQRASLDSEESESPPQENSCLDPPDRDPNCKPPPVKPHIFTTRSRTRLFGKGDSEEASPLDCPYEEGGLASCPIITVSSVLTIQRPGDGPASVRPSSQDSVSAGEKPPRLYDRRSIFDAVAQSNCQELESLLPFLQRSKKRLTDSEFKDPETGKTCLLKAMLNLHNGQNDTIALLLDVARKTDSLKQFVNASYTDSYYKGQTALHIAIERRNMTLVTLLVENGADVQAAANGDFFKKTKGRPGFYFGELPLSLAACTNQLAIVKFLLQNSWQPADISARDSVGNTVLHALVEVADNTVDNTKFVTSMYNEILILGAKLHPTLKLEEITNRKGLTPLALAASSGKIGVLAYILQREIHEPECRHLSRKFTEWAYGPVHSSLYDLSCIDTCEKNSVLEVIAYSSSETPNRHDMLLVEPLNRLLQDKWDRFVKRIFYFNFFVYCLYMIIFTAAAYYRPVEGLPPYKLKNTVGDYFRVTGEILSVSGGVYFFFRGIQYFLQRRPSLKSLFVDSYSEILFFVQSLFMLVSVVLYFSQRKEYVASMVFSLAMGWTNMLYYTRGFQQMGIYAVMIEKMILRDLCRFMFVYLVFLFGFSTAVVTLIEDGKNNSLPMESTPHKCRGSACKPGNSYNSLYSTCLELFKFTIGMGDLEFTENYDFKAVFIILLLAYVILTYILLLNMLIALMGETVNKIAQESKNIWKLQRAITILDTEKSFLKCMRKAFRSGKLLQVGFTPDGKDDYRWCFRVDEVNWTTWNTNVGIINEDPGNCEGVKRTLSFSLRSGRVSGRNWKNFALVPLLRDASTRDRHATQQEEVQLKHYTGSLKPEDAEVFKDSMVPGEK
- EXPERIMENTAL_PROTOCOL: Broadly stimulated recombinant rat VR1 functional assay (Ca2+ influx, FLIPR)
- Type: cell-based
- Design: expressed in transfected cells
- STUDY_CONDITIONS: recombinant rat VR1, stimulus low pH (pH 5.9), Ca2+ influx; read-out: IC50, Low pH
MEASUREMENT_LABEL: pIC50
Reminder that pIC50 means the negative base-10 logarithm of the concentration expressed in mol/L.

IN: # pIC50 lookup, item COc1ccc2c(c1)CCC(NC(=O)Nc1cccc3cnccc13)C2Cc1ccccc1 (stereo not shown) [Compound 33]
OUT: 6.77

---

- TARGET_SYSTEM: hVR1 receptors (Homo sapiens, UniProt Q8NER1)
- Sequence (Q8NER1 whole entry): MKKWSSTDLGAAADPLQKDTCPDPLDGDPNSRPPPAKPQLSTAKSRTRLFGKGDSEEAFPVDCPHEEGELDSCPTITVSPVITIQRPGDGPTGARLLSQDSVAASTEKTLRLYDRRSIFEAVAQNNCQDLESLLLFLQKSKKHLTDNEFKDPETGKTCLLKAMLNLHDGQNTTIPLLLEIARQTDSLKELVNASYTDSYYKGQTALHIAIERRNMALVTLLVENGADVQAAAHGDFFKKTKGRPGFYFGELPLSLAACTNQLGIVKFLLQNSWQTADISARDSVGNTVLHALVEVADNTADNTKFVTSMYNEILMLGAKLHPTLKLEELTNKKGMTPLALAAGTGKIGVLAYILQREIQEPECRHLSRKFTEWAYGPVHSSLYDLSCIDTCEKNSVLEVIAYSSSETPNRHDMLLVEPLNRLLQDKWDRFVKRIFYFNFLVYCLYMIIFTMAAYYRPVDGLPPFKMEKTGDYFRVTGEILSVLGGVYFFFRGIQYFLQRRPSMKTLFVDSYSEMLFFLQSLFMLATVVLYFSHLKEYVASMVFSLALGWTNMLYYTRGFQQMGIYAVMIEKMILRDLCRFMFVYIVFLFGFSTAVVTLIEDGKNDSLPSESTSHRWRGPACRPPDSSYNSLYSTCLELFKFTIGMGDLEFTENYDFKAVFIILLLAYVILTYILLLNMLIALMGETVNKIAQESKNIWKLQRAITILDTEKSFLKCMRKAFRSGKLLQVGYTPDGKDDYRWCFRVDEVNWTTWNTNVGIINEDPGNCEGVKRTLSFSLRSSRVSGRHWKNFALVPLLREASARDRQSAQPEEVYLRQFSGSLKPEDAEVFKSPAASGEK
- EXPERIMENTAL_PROTOCOL: Broadly stimulated recombinant human VR1 functional assay (Ca2+ influx, FLIPR)
- Assay type: cell-based
- Parameters: expressed in transfected cells; host or cells: HEK293
- STUDY_CONDITIONS: recombinant human VR1, stimulus 0.015% H2O2, Ca2+ influx; read-out: IC50, H2O2 reactive oxygen species
MEASUREMENT_LABEL: pIC50
Would you please state pIC50, meaning minus log10 of the concentration in mol/L, as a bare number?

IN: What value of measured pIC50 is listed for COc1ccc2c(c1)CCC(NC(=O)Nc1cccc3cnccc13)C2Cc1ccccc1 (stereo not shown) ?
OUT: 7.41

---

- TARGET_SYSTEM: Rat VR1 (Rattus norvegicus, UniProt O35433)
- EXPERIMENTAL_PROTOCOL: Broadly stimulated recombinant rat VR1 functional assay (Ca2+ influx, FLIPR)
- Format: cell-based
- Design: expressed in transfected cells
- STUDY_CONDITIONS: recombinant rat VR1, stimulus 0.015% H2O2, Ca2+ influx; read-out: IC50, H2O2
MEASUREMENT_LABEL: IC50 (nM)
Give just the number in nM; leave the unit off.

IN: Return reported IC50; argument: COc1ccc2c(c1)CCC(NC(=O)Nc1cccc3cnccc13)C2Cc1ccccc1 (stereo not shown)
OUT: 33

---

# IC50 values compiled below
- TARGET_SYSTEM: Rat VR1 (Rattus norvegicus, UniProt O35433)
- EXPERIMENTAL_PROTOCOL: Broadly stimulated recombinant rat VR1 functional assay (Ca2+ influx, FLIPR)
- Format: cell-based
- Design: expressed in transfected cells
- STUDY_CONDITIONS: recombinant rat VR1, stimulus anandamide 10 μM, Ca2+ influx; read-out: IC50, Anandamide
Lab book: enter the figure in nM, no units written.

COMPOUND	IC50, nM
COc1ccc2c(c1)CCC(NC(=O)Nc1cccc3cnccc13)C2Cc1ccccc1 (centres unmarked)	38

Now let's try a different one.
IN: Please give the measured IC50 for this compound: Cl.Cl.Cl.Cl.Cl.Cl.N.N.N.N.N.N.N.N.N.N.N.N.N.N.[O-2].[O-2].[Ru+3].[Ru+3].[Ru+4] [Ruthenium Red, ruthenium red, reference compound]
OUT: 1860

---

- TARGET_SYSTEM: hVR1 receptors (Homo sapiens, UniProt Q8NER1)
- EXPERIMENTAL_PROTOCOL: Broadly stimulated recombinant human VR1 functional assay (Ca2+ influx, FLIPR)
- Assay type: cell-based
- Set-up: expressed in transfected cells; host or cells: HEK293
- STUDY_CONDITIONS: recombinant human VR1, stimulus anandamide 10 μM, Ca2+ influx; read-out: IC50, Anandamide
MEASUREMENT_LABEL: IC50 (nM)
Please reply with the bare figure in nM and do not write the unit itself.

IN: Given the molecule COc1ccc2c(c1)CCC(NC(=O)Nc1cccc3cnccc13)C2Cc1ccccc1 (stereo not shown) , what is its reported IC50?
OUT: 41

---

What follows is a collection of pKi values obtained with hVR1 receptors (Homo sapiens).
pKi is a log-scale quantity: -log10 of the concentration expressed in molar.

IN: Suppose we examine the compound O=C(Nc1cccc2c(Cl)nc(Cl)cc12)NC1CCc2cc(F)ccc2C1Cc1ccccc1 (stereo not shown) ; what pKi value has been reported?
OUT: 6.73

IN: Using the record for O=C(Nc1cccc2cnccc12)NC1CCc2cc(O)ccc2C1Cc1ccccc1 (stereo not shown) , report its pKi.
OUT: 6.56

IN: Recorded pKi of COc1ccc2c(c1)CCC(NC(=O)Nc1cccc3cnccc13)C2Cc1ccc(C#N)cc1 (stereo not shown) , please.
OUT: 7.78

IN: Report pKi for COc1cc(CNC(=S)NC2CCc3ccccc3C2Cc2ccccc2)ccc1O (stereo not shown) please.
OUT: 7.01

---

Entries below carry reported pKi on Rat VR1 (Rattus norvegicus, UniProt O35433).
Note on units: pKi is unitless, being -log10 of a concentration expressed in mol/L.

Guide cases for pKi, answers given:
COMPOUND	TARGET_SYSTEM	pKi
Cc1cc2c(NC(=O)NC3CCc4cc(F)ccc4C3Cc3ccccc3)cccc2cn1 (single isomer, unassigned)	Rat VR1 (Rattus norvegicus, UniProt O35433)	6.11
COc1ccc2c(c1)CC[C@@H](NC(=O)Nc1cccc3cnccc13)[C@@H]2Cc1ccc(F)cc1F (relative stereo)	Rat VR1 (Rattus norvegicus, UniProt O35433)	5.83
O=C(Nc1cccc2cnccc12)NC1CCc2cc(F)ccc2C1Cc1cccc(C(F)(F)F)c1 (single isomer, unassigned)	Rat VR1 (Rattus norvegicus, UniProt O35433)	6.82
O=C(Nc1cccc2c(Cl)nccc12)NC1CCc2cc(F)ccc2C1Cc1ccccc1 (single isomer, unassigned)	Rat VR1 (Rattus norvegicus, UniProt O35433)	5.31

Next item in the queue.
IN: // map O=C(Nc1cccc2cnccc12)NC1CCc2cc(F)ccc2C1Cc1ccc(C(F)(F)F)cc1 (centres unmarked) to recorded pKi (system: Rat VR1 (Rattus norvegicus, UniProt O35433))
OUT: 7.54

---

- TARGET_SYSTEM: hVR1 receptors (Homo sapiens)
Decision: Ki beneath 5 nM gives T; Ki meeting or exceeding 5 nM gives F.

MOLECULE	ASSIGNED_CATEGORY
COc1ccc2c(c1)CCC(NC(=O)Nc1cccc3cnccc13)C2Cc1ccc(C(F)(F)F)cc1 (stereo not shown)	T
COc1ccc2c(c1)CC[C@@H](NC(=O)Nc1cccc3cnccc13)[C@@H]2Cc1ccccc1Cl (relative stereo)	F
O=C(Nc1cccc2cnccc12)NC1CCc2cc(F)ccc2C1Cc1cccc(C(F)(F)F)c1 (racemic)	T
COc1ccc2c(c1)CCC(NC(=O)Nc1cccc3cnccc13)C2Cc1ccccc1C(F)(F)F (stereo not shown)	T

IN: Item O=C(Nc1cccc2cnccc12)NC1CCc2cc(F)c(F)cc2C1Cc1ccccc1 (stereo not shown) : Ki beneath 5 nM, strictly?
OUT: T

IN: Determine whether this molecule shows Ki lower than 5 nM (ties excluded): Cc1cc2c(NC(=O)NC3CCc4cc(F)ccc4C3Cc3ccccc3)cccc2cn1 (single isomer, unassigned) [Compound 81b]
OUT: F

IN: Criterion: Ki strictly below 5 nM. Is it met by COc1ccc2c(c1)CCC(NC(=O)NCc1ccc3c(c1)OCO3)C2Cc1ccccc1 (stereo not shown) ?
OUT: F

IN: Please state whether Ki is below 5 nM for COc1ccc(CC2c3ccc(OC)cc3CCC2NC(=O)Nc2cccc3cnccc23)cc1 (stereo not shown) [Compound 70]
OUT: F

IN: Bench note: check whether O=C(Nc1cccc2cnccc12)NC1CCc2ccccc2C1Cc1ccccc1 (stereo not shown) shows Ki below 5 nM
OUT: T

IN: In plain terms, does O=C(Nc1cccc2cnccc12)NC1CCc2ccc(Cl)cc2C1Cc1ccccc1 (stereo not shown) come in under 5 nM for Ki?
OUT: T

IN: Please state whether Ki is below 5 nM for O=C(Nc1cccc2c[n+]([O-])ccc12)NC1CCc2cc(Cl)ccc2C1Cc1ccccc1 (stereo not shown)
OUT: F

---

- TARGET_SYSTEM: Rat VR1 (Rattus norvegicus)
- EXPERIMENTAL_PROTOCOL: Broadly stimulated recombinant rat VR1 functional assay (Ca2+ influx, FLIPR)
- Format: cell-based
- Design: expressed in transfected cells
- STUDY_CONDITIONS: recombinant rat VR1, stimulus 300 nM PMA, Ca2+ influx; read-out: IC50, PKC phosphorylation
MEASUREMENT_LABEL: IC50 (nM)
// note: answer is a bare numeric in nM

IN: Entry Cl.Cl.Cl.Cl.Cl.Cl.N.N.N.N.N.N.N.N.N.N.N.N.N.N.[O-2].[O-2].[Ru+3].[Ru+3].[Ru+4] [Ruthenium Red, ruthenium red, reference compound] , system Rat VR1 (Rattus norvegicus): what IC50 was measured?
OUT: 300
